meta.source: PubChem BioAssay

Provide the recorded inhibition for the entries that follow.
# ASSAY_TARGET: L-lactate dehydrogenase (Plasmodium falciparum (isolate CDC / Honduras))
# PROTOCOL: PfLDH activity inhibition – cell lysate, 3D7 strain, counter-screen for P. falciparum growth inhibition project (AID 2304);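 further: 0% = vehicle and 100% = reference inhibitor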
# CONDITION_LABEL: P. falciparum 3D7 crude extract, LDH APAD/NBT absorbance; at 2 µM; active compounds read high
Response body: numeric value in %, unit text excluded.

Asked: Can you look up inhibition on L-lactate dehydrogenase (Plasmodium falciparum (isolate CDC / Honduras)) for C=CCN1C(=O)c2[nH]nc(-c3cc(C)c(C)cc3O)c2C1c1cccc(Br)c1 (centres undefined) ?
Given back: -3

Asked: Can you look up inhibition on L-lactate dehydrogenase (Plasmodium falciparum (isolate CDC / Honduras)) for Cc1ccccc1C1CCN(C2CCC(NC(=O)c3cc(-c4ccc(Cl)cc4)cs3)CC2)CC1 (centres undefined) ?
Given back: -2

Asked: Can you look up inhibition on L-lactate dehydrogenase (Plasmodium falciparum (isolate CDC / Honduras)) for COc1cc(OC)c(NC(=O)C2c3ccccc3C(=O)N(C)C2c2cccs2)cc1Cl (centres undefined) ?
Given back: -5

Asked: Can you look up inhibition on L-lactate dehydrogenase (Plasmodium falciparum (isolate CDC / Honduras)) for FC(F)(F)COc1ccc2ccccc2c1CCNCCCCNCCc1c(OCC(F)(F)F)ccc2ccccc12 ?
Given back: 0

Asked: Can you look up inhibition on L-lactate dehydrogenase (Plasmodium falciparum (isolate CDC / Honduras)) for COc1cccc2c(NN=Cc3ccccc3[N+](=O)[O-])ccnc12 ?
Given back: -3

Asked: Can you look up inhibition on L-lactate dehydrogenase (Plasmodium falciparum (isolate CDC / Honduras)) for Cc1cnc(NC(=O)c2cn(-c3ccccc3)nc2-c2cccs2)s1 ?
Given back: -1

Asked: Can you look up inhibition on L-lactate dehydrogenase (Plasmodium falciparum (isolate CDC / Honduras)) for N#Cc1ccc(NC(=O)Nc2ccc(OC(F)(F)F)cc2)cc1 ?
Given back: 0

Asked: Can you look up inhibition on L-lactate dehydrogenase (Plasmodium falciparum (isolate CDC / Honduras)) for CCCCNC(=O)[C@H](Cc1ccccc1)NC(=O)c1ccc(O)c(-c2ccc(Cl)c(Cl)c2)c1 ?
Given back: 3

Asked: Can you look up inhibition on L-lactate dehydrogenase (Plasmodium falciparum (isolate CDC / Honduras)) for COc1cc(NC(=O)Nc2cc(C)nc3ccccc23)cc(OC)c1 ?
Given back: -4

Asked: Can you look up inhibition on L-lactate dehydrogenase (Plasmodium falciparum (isolate CDC / Honduras)) for Cc1nc(-c2ccc(-c3ccc(C(=O)Nc4ccc(-n5ccnc5)c(N5CCN(C)CC5)c4)cc3)c(C)c2)no1 ?
Given back: 2

Asked: Can you look up inhibition on L-lactate dehydrogenase (Plasmodium falciparum (isolate CDC / Honduras)) for Clc1ccc2c(NN=Cc3ccccc3)ccnc2c1 ?
Given back: -3

Asked: Can you look up inhibition on L-lactate dehydrogenase (Plasmodium falciparum (isolate CDC / Honduras)) for CCCc1cc(Cc2cnc(N)nc2N)cc(CCC)c1O ?
Given back: 2

Asked: Can you look up inhibition on L-lactate dehydrogenase (Plasmodium falciparum (isolate CDC / Honduras)) for CCCCCCCCc1c(C)[nH]c(C)c(I)c1=O ?
Given back: 4

Asked: Can you look up inhibition on L-lactate dehydrogenase (Plasmodium falciparum (isolate CDC / Honduras)) for CCCC(C)NC[C@@H](O)[C@H](Cc1ccccc1)NC(=O)c1cc(C2CCCC2)cc(N2CCCCS2(=O)=O)c1 (some centres undefined) ?
Given back: 3

Asked: Can you look up inhibition on L-lactate dehydrogenase (Plasmodium falciparum (isolate CDC / Honduras)) for Oc1c(CN2CCCC(C(F)(F)F)C2)cc(Cl)c2ccccc12 (centres undefined) ?
Given back: 4

Asked: Can you look up inhibition on L-lactate dehydrogenase (Plasmodium falciparum (isolate CDC / Honduras)) for COc1cc(NC(=O)/C=C/c2ccc(-c3ccccc3)cc2)ccc1OCCN(C(C)C)C(C)C ?
Given back: -5

Asked: Can you look up inhibition on L-lactate dehydrogenase (Plasmodium falciparum (isolate CDC / Honduras)) for O=C(COc1cccc([N+](=O)[O-])c1)Nc1ccc(-c2nc3ccccc3[nH]2)cc1 ?
Given back: 7

Asked: Can you look up inhibition on L-lactate dehydrogenase (Plasmodium falciparum (isolate CDC / Honduras)) for O=C(NC1CCCCC1)N(Cc1ccccc1-c1ccc(CNCCc2ccccc2)cc1)C1CCN(Cc2ccccc2)CC1 ?
Given back: -6

Asked: Can you look up inhibition on L-lactate dehydrogenase (Plasmodium falciparum (isolate CDC / Honduras)) for Oc1ccccc1Nc1nc(NCc2ccco2)c2ccccc2n1 ?
Given back: 3

Asked: Can you look up inhibition on L-lactate dehydrogenase (Plasmodium falciparum (isolate CDC / Honduras)) for CC(C)N1CCN(CCCNc2c3ccccc3nc3ccccc23)CC1 ?
Given back: 8

Asked: Can you look up inhibition on L-lactate dehydrogenase (Plasmodium falciparum (isolate CDC / Honduras)) for Nc1ccn([C@@H]2O[C@H](COC(c3ccccc3)(c3ccccc3)c3ccccc3)[C@@H](O)[C@@H]2O)c(=O)n1 ?
Given back: 1

Asked: Can you look up inhibition on L-lactate dehydrogenase (Plasmodium falciparum (isolate CDC / Honduras)) for CC[C@H]1CN2CCc3c([nH]c4ccccc34)[C@@H]2C[C@@H]1CC1c2cc(OC)c(OC)cc2CCN1C (some centres undefined) ?
Given back: 5

Asked: Can you look up inhibition on L-lactate dehydrogenase (Plasmodium falciparum (isolate CDC / Honduras)) for O=C(N[C@H]1CCN(Cc2ccc(OC3CCN(Cc4ccccc4)CC3)c(Br)c2)C1)c1ccc(Cl)c(Cl)c1 ?
Given back: -1

Asked: Can you look up inhibition on L-lactate dehydrogenase (Plasmodium falciparum (isolate CDC / Honduras)) for Cc1[nH]nc2ccc(-c3cc(OC[C@@H](N)Cc4ccccc4)cnc3-c3ccccc3OCc3cccc(F)c3)cc12 ?
Given back: -2

Asked: Can you look up inhibition on L-lactate dehydrogenase (Plasmodium falciparum (isolate CDC / Honduras)) for O=C(NCc1cccc(C(F)(F)F)c1)C(c1cc2ccccc2o1)N1CCN(C(c2ccccc2)c2ccccc2)CC1 (centres undefined) ?
Given back: 0

Asked: Can you look up inhibition on L-lactate dehydrogenase (Plasmodium falciparum (isolate CDC / Honduras)) for Nc1ccc(Nc2ccnc3ccc(C(F)(F)F)cc23)cc1O ?
Given back: 5

Asked: Can you look up inhibition on L-lactate dehydrogenase (Plasmodium falciparum (isolate CDC / Honduras)) for COc1cc(F)c2nccc([C@@H](O)CN3CC[C@@H](NC(=O)OCc4ccccc4)[C@@H](F)C3)c2c1 ?
Given back: 2

Asked: Can you look up inhibition on L-lactate dehydrogenase (Plasmodium falciparum (isolate CDC / Honduras)) for CC(Sc1n[nH]c(-c2cccs2)n1)C(=O)c1c[nH]c2ccccc12 (centres undefined) ?
Given back: 6

Asked: Can you look up inhibition on L-lactate dehydrogenase (Plasmodium falciparum (isolate CDC / Honduras)) for COc1ccc(-c2cccc(NC(=O)c3ccc(C#N)cc3)c2)cc1CN(C)CCN(C)C ?
Given back: 3
